- Tested on: Staphylococcus aureus
- run_description: Antibacterial activity against linezolid/methicillin resistant Staphylococcus aureus NR 45924 after 16 to 20 hrs by CLSI method
- Format: functional

compound | MIC [µg/mL]
CCC1C(c2ccc(C(F)(F)F)cc2)=C(O)C(=O)N1c1ccccc1 (racemic) | 16
CCC1C(c2ccc(C(F)(F)F)cc2)=C(O)C(=O)N1Cc1ccccc1 (racemic) | 32
CC[C@H]1OC(=O)[C@H](C)[C@@H](O[C@H]2C[C@@](C)(OC)[C@@H](O)[C@H](C)O2)[C@H](C)[C@@H](O[C@@H]2O[C@H](C)C[C@H](N(C)C)[C@H]2O)[C@](C)(O)C[C@@H](C)C(=O)[C@H](C)[C@@H](O)[C@]1(C)O [ERYTHROMYCIN] | 0.5
CCC1C(c2ccc(C(F)(F)F)cc2)=C(O)C(=O)N1C1CCCCC1 (racemic) | 32
CCCCCCN1C(=O)C(O)=C(c2ccc(C(F)(F)F)cc2)C1CC (racemic) | 64

* * *

- Test system: Staphylococcus epidermidis
- run_description: Antibacterial activity against methicillin resistant Staphylococcus epidermidis NR 46386 after 16 to 20 hrs by CLSI method
- Type: functional
reported_metric: MIC (µg/mL)

molecule | value_measured
CCC1C(c2ccc(C(F)(F)F)cc2)=C(O)C(=O)N1C1CCCCC1 (racemic) | 2
CCC1C(c2ccc(C(F)(F)F)cc2)=C(O)C(=O)N1c1ccccc1 (racemic) | 4
CCCCCCN1C(=O)C(O)=C(c2ccc(C(F)(F)F)cc2)C1CC (racemic) | 8
CC(=O)NC[C@H]1CN(c2ccc(N3CCOCC3)c(F)c2)C(=O)O1 | 0.25
CCC1C(c2ccc(C(F)(F)F)cc2)=C(O)C(=O)N1Cc1ccccc1 (racemic) | 8

* * *

- Test system: Staphylococcus aureus
- run_description: Antibacterial activity against methicillin resistant Staphylococcus aureus BAA-1685 after 16 to 20 hrs by CLSI method
- Assay type: functional

compound | MIC, µg/mL
CCC1C(c2ccc(C(F)(F)F)cc2)=C(O)C(=O)N1C1CCCCC1 (racemic) | 32
CCCCCCN1C(=O)C(O)=C(c2ccc(C(F)(F)F)cc2)C1CC (racemic) | 64
CC(=O)NC[C@H]1CN(c2ccc(N3CCOCC3)c(F)c2)C(=O)O1 | 1
CCC1C(c2ccc(C(F)(F)F)cc2)=C(O)C(=O)N1c1ccccc1 (racemic) | 32
CCC1C(c2ccc(C(F)(F)F)cc2)=C(O)C(=O)N1Cc1ccccc1 (racemic) | 32

* * *

- System: Staphylococcus epidermidis
- run_description: Antibacterial activity against methicillin resistant Staphylococcus epidermidis ATCC 51625 after 16 to 20 hrs by CLSI method
- Assay type: functional
reported_metric: MIC (µg/mL)

compound | value_measured
CCC1C(c2ccc(C(F)(F)F)cc2)=C(O)C(=O)N1C1CCCCC1 (racemic) | 16
CC(=O)NC[C@H]1CN(c2ccc(N3CCOCC3)c(F)c2)C(=O)O1 | 0.25
CCCCCCN1C(=O)C(O)=C(c2ccc(C(F)(F)F)cc2)C1CC (racemic) | 4
CCC1C(c2ccc(C(F)(F)F)cc2)=C(O)C(=O)N1Cc1ccccc1 (racemic) | 8
CCC1C(c2ccc(C(F)(F)F)cc2)=C(O)C(=O)N1c1ccccc1 (racemic) | 8
